Target: cyclooxygenase (Ovis aries, UniProt P05979)
Construct: Ram seminal vesicular glands were trimmed of fat; from tissue; host or cells: ram seminal vesicular glands, microsomal pellet (105K xg)
Sequence (P05979 25-600): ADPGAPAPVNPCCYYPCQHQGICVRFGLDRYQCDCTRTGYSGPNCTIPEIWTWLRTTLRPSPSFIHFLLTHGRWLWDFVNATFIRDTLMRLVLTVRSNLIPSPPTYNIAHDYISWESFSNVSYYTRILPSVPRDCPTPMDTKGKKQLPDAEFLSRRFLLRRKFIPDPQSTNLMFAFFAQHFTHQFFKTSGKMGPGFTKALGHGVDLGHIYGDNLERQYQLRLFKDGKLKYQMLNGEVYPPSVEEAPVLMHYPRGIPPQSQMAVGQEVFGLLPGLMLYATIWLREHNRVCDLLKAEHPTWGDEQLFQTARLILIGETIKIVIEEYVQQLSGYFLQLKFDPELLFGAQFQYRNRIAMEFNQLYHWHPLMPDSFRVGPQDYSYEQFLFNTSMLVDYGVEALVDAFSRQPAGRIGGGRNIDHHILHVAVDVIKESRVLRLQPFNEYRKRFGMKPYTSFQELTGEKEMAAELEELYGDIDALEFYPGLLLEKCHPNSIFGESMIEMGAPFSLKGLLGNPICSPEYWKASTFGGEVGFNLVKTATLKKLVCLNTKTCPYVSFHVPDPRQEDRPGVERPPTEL
Assay: RSVM-CO: Ram Seminal Vesicle Microsomal Cyclooxygenase assay
Format: biochemical
Details: 0.1 μg/ml
Each item that follows carries a reported inhibition at 0.1 µg/mL.
Answer format: numeric, % implied, no suffix.

// known answers, use as guide
>>> recordedmeasurement("CC(=O)Oc1cc(-c2ccccc2)sc1-c1ccccc1 [Compound 3]")
13
>>> recordedmeasurement("CC(=O)Oc1cscc1-c1ccccc1 [Compound 15, 3-Acetoxy-4-phenylthiophene]")
0
>>> recordedmeasurement("CC(=O)Oc1c(-c2ccccc2)sc(-c2ccccc2)c1-c1ccccc1 [Compound 7]")
0

// query Look up inhibition at 0.1 µg/mL: COCC(=O)Oc1cc(-c2ccccc2)sc1-c1ccccc1 [Compound 10]
// result 60

// query Request: CC(=O)Oc1cc(-c2cccs2)sc1-c1ccccc1
// result 0

* * *

target: 5-lipoxygenase (Rattus norvegicus); construct: endogenous in cells; host or cells: casein-elicited peritoneal polymorphonuclear leukocytes of male Sprague-Dawley rats; experiment: PMN5LO assay: inhibition of LTB4 production in A23187-stimulated rat peritoneal PMN (RIA); assay type: cell-based; conditions: estimated concentration required for 50% inhibition
Sequence (P12527 whole entry): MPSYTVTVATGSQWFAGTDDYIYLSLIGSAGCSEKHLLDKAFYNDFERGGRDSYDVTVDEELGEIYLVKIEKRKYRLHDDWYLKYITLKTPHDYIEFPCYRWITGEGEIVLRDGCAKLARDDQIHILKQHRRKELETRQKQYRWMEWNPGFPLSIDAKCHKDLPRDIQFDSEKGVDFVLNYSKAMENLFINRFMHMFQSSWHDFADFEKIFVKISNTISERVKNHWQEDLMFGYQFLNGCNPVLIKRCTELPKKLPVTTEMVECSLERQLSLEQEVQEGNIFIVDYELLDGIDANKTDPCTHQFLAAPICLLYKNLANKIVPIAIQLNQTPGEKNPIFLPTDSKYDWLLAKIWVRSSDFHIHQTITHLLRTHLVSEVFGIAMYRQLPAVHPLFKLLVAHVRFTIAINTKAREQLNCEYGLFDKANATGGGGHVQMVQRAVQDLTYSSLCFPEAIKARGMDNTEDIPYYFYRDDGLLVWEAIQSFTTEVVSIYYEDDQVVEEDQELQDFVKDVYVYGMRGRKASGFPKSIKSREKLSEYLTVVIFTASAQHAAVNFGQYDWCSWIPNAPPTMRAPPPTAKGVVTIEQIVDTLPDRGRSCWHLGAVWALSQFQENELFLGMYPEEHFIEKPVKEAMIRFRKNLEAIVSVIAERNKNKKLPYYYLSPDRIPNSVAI
assayReadout: IC50 (nM)
Answer format: numeric, nM implied, no suffix.

>>> recordedmeasurement("c1ccc(-c2ccc(-c3ccccc3)s2)cc1")
4000
>>> recordedmeasurement("Oc1cc(-c2ccccc2)sc1-c1ccccc1 [Compound 4, 3-Hydroxy-2,5-diphenylthiophene]")
110
>>> recordedmeasurement("COc1ccc(-c2sc3c(c2OC(C)=O)Cc2ccccc2-3)cc1")
2500
>>> recordedmeasurement("COCC(=O)Oc1cc(-c2ccccc2)sc1-c1ccccc1")
200
>>> recordedmeasurement("Cc1ccccc1-c1cc(O)c(-c2ccccc2)s1")
120
>>> recordedmeasurement("CC(=O)Oc1cc(-c2ccccc2)sc1-c1cccnc1")
230

// query Look up IC50: COc1ccc(-c2sc3c(c2OC(C)=O)CCCC3)cc1
// result 650

// query Request: COc1ccc(-c2sc(-c3ccccc3)cc2OC(C)=O)cc1
// result 80
